I'd appreciate it if you could supply IC50 values for the items below.
Target: KRAS G13D (Homo sapiens (Human), UniProt P01116+P62937, G13D)
Sequence (P01116-2 other isoform, or with tags, fused parts or gaps G13D): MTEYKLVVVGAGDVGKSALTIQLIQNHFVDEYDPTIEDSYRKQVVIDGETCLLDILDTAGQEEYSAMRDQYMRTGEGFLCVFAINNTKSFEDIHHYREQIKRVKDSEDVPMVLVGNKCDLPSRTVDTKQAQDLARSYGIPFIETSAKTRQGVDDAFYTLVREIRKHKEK
Sequence (P62937 whole entry): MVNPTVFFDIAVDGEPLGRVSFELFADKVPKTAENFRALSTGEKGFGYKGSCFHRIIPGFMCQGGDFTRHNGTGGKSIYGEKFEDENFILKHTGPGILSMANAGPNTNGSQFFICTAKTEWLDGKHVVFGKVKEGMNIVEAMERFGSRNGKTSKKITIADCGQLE
Experiment: Ras-Raf (BRAF RBD) disruption / FRET / MOA assay, KRAS G13D
Type: biochemical
Settings: read-out: IC50* KRAS G13D FRET data
Experimental: The purpose of this biochemical assay is to measure the ability of test compounds to facilitate ternary complex formation between a nucleotide-loaded Ras isoform and cyclophilin A; the resulting ternary complex disrupts binding to a BRAF^RBD construct, inhibiting Ras signaling through a RAF effector. Compound is present in plate wells as a 10-point 3-fold dilution series starting at a final concentration of 30 μM. […]

>  <COMPOUND>
C=CC(=O)Nc1cnc(C(=O)N(C)[C@H](C(=O)N[C@H]2Cc3cc(O)cc(c3)-c3ccc4c(c3)c(c(-c3cccnc3[C@H](C)OC)n4CC)CC(C)(C)COC(=O)[C@@H]3CCCN(N3)C2=O)C(C)C)s1 (atropisomer, axis not shown) [Example A254]

>  <REPORTED PROPERTY>
IC50

>  <REPORTED RESULT>
1000 to 10000 nM

$$$$
>  <COMPOUND>
CCn1c(-c2cccnc2[C@H](C)OC)c2c3cc(ccc31)-c1csc(n1)C[C@H](NC(=O)[C@H](C(C)C)N(C)C(=O)N1CCN(C(=O)C#CC(C)(C)N(C)C)CC1)C(=O)N1CCC[C@H](N1)C(=O)OCC(C)(C)C2 (atropisomer, axis not shown) [Example A479]

>  <REPORTED PROPERTY>
IC50

>  <REPORTED RESULT>
100 to 1000 nM

$$$$
>  <COMPOUND>
CCn1c(-c2cccnc2[C@H](C)OC)c2c3cc(ccc31)-c1csc(n1)C[C@H](NC(=O)[C@@H](COC1CN(C(=O)C#CC(C)(C)N(C)C)C1)OC)C(=O)N1CCC[C@H](N1)C(=O)OCC(C)(C)C2 (atropisomer, axis not shown) [Example A660]

>  <REPORTED PROPERTY>
IC50

>  <REPORTED RESULT>
1000 to 10000 nM

$$$$
>  <COMPOUND>
C=CC(=O)N1CC[C@H](C(=O)N2CCCCC[C@H]2C(=O)N[C@H]2Cc3cccc(c3)-c3ccc4c(c3)c(c(-c3cccnc3[C@H](C)OC)n4CC)CC(C)(C)COC(=O)[C@@H]3CCCN(N3)C2=O)C1 (atropisomer, axis not shown) [Example A496]

>  <REPORTED PROPERTY>
IC50

>  <REPORTED RESULT>
> 10000 nM

$$$$

Kindly review the next compound as well.
[ask] KRAS G13D (Homo sapiens (Human), UniProt P01116+P62937, G13D) / IC50 / C=CC(=O)N1C[C@H](F)[C@](F)(C(=O)N(C)[C@H](C(=O)N[C@H]2Cc3cccc(c3)-c3ccc4c(c3)c(c(-c3cccnc3[C@H](C)OC)n4CC)CC(C)(C)COC(=O)[C@@H]3CCCN(N3)C2=O)C(C)C)C1 (atropisomer, axis not shown) [Example A397] : value?
[reply] 100 to 1000 nM

###

molecular target: NRAS Q61R (Homo sapiens (Human), UniProt P01111+P62937, Q61R); assay: Ras-Raf (BRAF RBD) disruption / FRET / MOA assay, NRAS Q61R; format: biochemical; conditions: NRAS Q61R; Ras-Raf disruption/FRET/MOA assay; read-out: IC50* NRAS Q61R FRET data
Sequence (P01111 whole entry Q61R): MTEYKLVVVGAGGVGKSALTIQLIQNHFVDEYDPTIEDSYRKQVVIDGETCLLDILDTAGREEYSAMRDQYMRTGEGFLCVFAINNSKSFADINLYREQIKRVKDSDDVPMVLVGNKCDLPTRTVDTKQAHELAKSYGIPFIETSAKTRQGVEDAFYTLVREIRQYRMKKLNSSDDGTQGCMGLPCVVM
Sequence (P62937 whole entry): as the sequence (P62937 whole entry) above
I'd appreciate it if you could supply IC50 values for the items below.

>  <COMPOUND>
C=CC(=O)N1CC[C@H](C(=O)N(C)[C@H](C(=O)N[C@H]2Cc3nc(cs3)-c3ccc4c(n3)c(c(-c3cccnc3[C@H](C)OC)n4CC)CC(C)(C)COC(=O)[C@@H]3CCCN(N3)C2=O)C(C)C)C1

>  <IC50>
1000 to 10000 nM

$$$$

List the reported IC50 of each compound below.
1. CO[C@@H](C)c1ncc(N2CCN(C)CC2)cc1-c1c2c3cc(ccc3n1CC(F)(F)F)-c1cccc(c1)C[C@H](NC(=O)[C@H](C(C)C)N(C)C(=O)C1(F)CCN(C(=O)C#CC(C)(C)N(C)C)CC1)C(=O)N1CCC[C@H](N1)C(=O)OCC(C)(C)C2 (atropisomer, axis not shown)
2. CCn1c(-c2cccnc2[C@H](C)OC)c2c3cc(ccc31)-c1csc(n1)C[C@H](NC(=O)[C@H](C(C)C)N(C)C(=O)N1CCC3(CC1)CN(C(=O)/C=C/CN(C)C)C3)C(=O)N1CCC[C@H](N1)C(=O)OCC(C)(C)C2 (atropisomer, axis not shown)
3. CCn1c(-c2cccnc2[C@H](C)OC)c2c3cc(ccc31)-c1cccc(c1)C[C@H](NC(=O)[C@H](C(C)C)N1CC[C@]3(CCN(C(=O)C#C[C@H]4COCCN4C)C3)C1=O)C(=O)N1CCC[C@H](N1)C(=O)OCC(C)(C)C2 (atropisomer, axis not shown)
4. CCn1c(-c2cccnc2[C@H](C)OC)c2c3cc(ccc31)-c1csc(n1)C[C@H](NC(=O)[C@H](C(C)C)N(C)C(=O)N1CCN(C(=O)/C=C/CN(C)C)C[C@@H]1C)C(=O)N1CCC[C@H](N1)C(=O)OCC(C)(C)C2 (atropisomer, axis not shown)
5. C=CC(=O)N1CC[C@H](C(=O)N(C)[C@H](C(=O)N[C@H]2Cc3cccc(c3)-c3ccc4c(c3)c(c(-c3cc(N5CCN(C)CC5)cnc3[C@H](C)OC)n4CC)CC(C)(C)COC(=O)[C@@H]3CCCN(N3)C2=O)C(C)C)C1 (single isomer, unassigned)

[reply]
["10 to 100 nM", "100 to 1000 nM", "> 10000 nM", "100 to 1000 nM", "1000 to 10000 nM"]

[ask] Requested field: IC50. Item: C=CC(=O)N(C)[C@@H]1C[C@H]1N(C)C(=O)N(C)[C@H](C(=O)N[C@H]1Cc2nc(cs2)-c2ccc3c(c2)c(c(-c2cccnc2[C@H](C)OC)n3CC)CC(C)(C)COC(=O)[C@@H]2CCCN(N2)C1=O)C(C)C (atropisomer, axis not shown)
[reply] 1000 to 10000 nM

Entry source: patent US11566007B2
